assay: Biodistribution of Tc-99m complexes in guinea pigs (heart uptake, heart/blood); settings: jugular vein injection, 5 minutes, Tc-99m complex
For each of the compounds below, state its 5 Minute Guinea Pig % HT Uptake.
Answers are plain numbers, in %.

> print(dat)
                                   compound                     assay.metric  measure.unit  assay.result
1  COC(C)(C)Cc1ccc(O)c(C=NCC(C)(CN=Cc2cc(CC(C)(C)OC)ccc2O)CN=Cc2cc(CC(C)(C)OC)ccc2O)c1 (stereo not shown)  5 Minute Guinea Pig % HT Uptake             %          0.49
2  CCc1cccc(C=NCC(C)(CN=Cc2cccc(CC)c2O)CN=Cc2cccc(CC)c2O)c1O (stereo not shown)  5 Minute Guinea Pig % HT Uptake             %          0.47
3  CC(C)COCC(CN=Cc1ccccc1O)(CN=Cc1ccccc1O)CN=Cc1ccccc1O (stereo not shown)  5 Minute Guinea Pig % HT Uptake             %          1.72

# ---- query compound ----
Task: Name the reported 5 Minute Guinea Pig % HT Uptake value associated with the compound Cc1ccc(O)c(C=NCC(C)(CN=Cc2cc(C)ccc2O)CN=Cc2cc(C)ccc2O)c1 (stereo not shown) [R5=H, R6=H, R7=CH3, R8=H, R3=H, R4=CH3]
Result: 1.82

###

experiment: Biodistribution of Tc-99m complexes in guinea pigs (heart uptake, heart/blood); conditions: jugular vein injection, 5 minutes, Tc-99m complex
Assay metric: 5 Minute Guinea Pig % HT Uptake (%)
Give bare numbers, in %.

A selection of reference data follows.
> print(dat)
                                   compound                     assay.metric  assay.result
1  CCCOCC(CN=Cc1c(O)cc(OC)cc1OC)(CN=Cc1c(O)cc(OC)cc1OC)CN=Cc1c(O)cc(OC)cc1OC (stereo not shown)  5 Minute Guinea Pig % HT Uptake          1.21
2  CC(CN=Cc1cc(F)ccc1O)(CN=Cc1cc(F)ccc1O)CN=Cc1cc(F)ccc1O (stereo not shown) [R5=H, R6=H, R7=F, R8=H, R3=H, R4=CH3]  5 Minute Guinea Pig % HT Uptake          1.30
3  C=CCOCC(CN=Cc1ccccc1O)(CN=Cc1ccccc1O)CN=Cc1ccccc1O (stereo not shown)  5 Minute Guinea Pig % HT Uptake          1.09
4  CC(C)OCC(CN=Cc1ccccc1O)(CN=Cc1ccccc1O)CN=Cc1ccccc1O (stereo not shown)  5 Minute Guinea Pig % HT Uptake          0.57
5  COc1cc(COCC(CN=Cc2ccccc2O)(CN=Cc2ccccc2O)CN=Cc2ccccc2O)cc(OC)c1OC (stereo not shown)  5 Minute Guinea Pig % HT Uptake          1.00
6  CSc1ccc(O)c(C=NCC(C)(CN=Cc2cc(SC)ccc2O)CN=Cc2cc(SC)ccc2O)c1 (stereo not shown) [R5=H, R6=H, R7=SCH3, R8=H, R3=H, R4=CH3]  5 Minute Guinea Pig % HT Uptake          1.23
7  Oc1ccc(F)cc1C=NCC(CN=Cc1cc(F)ccc1O)(CN=Cc1cc(F)ccc1O)COCc1ccccc1 (stereo not shown)  5 Minute Guinea Pig % HT Uptake          1.14
8  Oc1c(F)cc(F)cc1C=NCC(CN=Cc1cc(F)cc(F)c1O)(CN=Cc1cc(F)cc(F)c1O)COCc1ccccc1 (stereo not shown)  5 Minute Guinea Pig % HT Uptake          1.72

// each listed compound needs a value for 5 Minute Guinea Pig % HT Uptake
1. CCCOCC(CN=Cc1ccc(OC)cc1O)(CN=Cc1ccc(OC)cc1O)CN=Cc1ccc(OC)cc1O (stereo not shown)
2. COc1ccc(C=NCC(C)(CN=Cc2ccc(OC)cc2O)CN=Cc2ccc(OC)cc2O)c(O)c1 (stereo not shown) [R5=H, R6=OCH3, R7=H, R8=H, R3=H, R4=CH3]

Result:
1. 0.87
2. 2.11

###

experiment: Biodistribution of Tc-99m complexes in guinea pigs (heart uptake, heart/blood); conditions: jugular vein injection, 5 minutes, Tc-99m complex
Assay metric: 5 Minute Guinea Pig % HT Uptake (%)
Numbers only, in %.

Solved cases below.
> print(dat)
                                   molecule  measure.unit  assay.result
1  COc1cccc(O)c1C=NCC(C)(CN=Cc1c(O)cccc1OC)CN=Cc1c(O)cccc1OC (stereo not shown)             %          1.55
2  CSc1ccc(C=NCC(C)(CN=Cc2ccc(SC)cc2O)CN=Cc2ccc(SC)cc2O)c(O)c1 (stereo not shown)             %          1.72
3  Cc1ccc(C=NCC(C)(CN=Cc2ccc(C)cc2O)CN=Cc2ccc(C)cc2O)c(O)c1 (stereo not shown)             %          1.51
4  COc1cc(COCC(CN=Cc2c(O)cc(OC)c(OC)c2OC)(CN=Cc2c(O)cc(OC)c(OC)c2OC)CN=Cc2c(O)cc(OC)c(OC)c2OC)cc(OC)c1OC (stereo not shown)             %          0.98
5  CCCCOCC(CN=Cc1ccccc1O)(CN=Cc1ccccc1O)CN=Cc1ccccc1O (stereo not shown)             %         1.463
6  CCCOCC(CN=Cc1ccc(C)cc1O)(CN=Cc1ccc(C)cc1O)CN=Cc1ccc(C)cc1O (stereo not shown)             %          1.79

Task: Given the entry Oc1ccccc1C=NCC(CN=Cc1ccccc1O)(CN=Cc1ccccc1O)COc1cccc2ccccc12 (stereo not shown) , report its measured 5 Minute Guinea Pig % HT Uptake.
Result: 0.72

###

assay: Biodistribution of Tc-99m complexes in guinea pigs (heart uptake, heart/blood); conditions: jugular vein injection, 5 minutes, Tc-99m complex
Could you please report measured 5 Minute Guinea Pig % HT Uptake for the items listed next?
Answers are plain numbers, in %.

Worked examples, 7 compounds total:
> print(dat)
                                   compound                     assay.metric  measure.unit  assay.result
1  Oc1ccccc1C=NCC(CN=Cc1ccccc1O)CN=Cc1ccccc1O (centres unmarked)  5 Minute Guinea Pig % HT Uptake             %          1.29
2  Oc1ccccc1C=NCCN(CCN=Cc1ccccc1O)CCN=Cc1ccccc1O  5 Minute Guinea Pig % HT Uptake             %          0.84
3  COCCOCC(CN=Cc1ccccc1O)(CN=Cc1ccccc1O)CN=Cc1ccccc1O (centres unmarked)  5 Minute Guinea Pig % HT Uptake             %          1.01
4  COc1c(O)c(C=NCC(C)(CN=Cc2c(O)c(OC)c(OC)c(OC)c2OC)CN=Cc2c(O)c(OC)c(OC)c(OC)c2OC)c(OC)c(OC)c1OC (centres unmarked)  5 Minute Guinea Pig % HT Uptake             %          1.24
5  COc1ccc(COCC(CN=Cc2ccccc2O)(CN=Cc2ccccc2O)CN=Cc2ccccc2O)cc1 (centres unmarked)  5 Minute Guinea Pig % HT Uptake             %          1.08
6  CCCOCC(CN=Cc1cc(OC)ccc1O)(CN=Cc1cc(OC)ccc1O)CN=Cc1cc(OC)ccc1O (centres unmarked)  5 Minute Guinea Pig % HT Uptake             %          1.52
7  CCCCCCOCC(CN=Cc1ccccc1O)(CN=Cc1ccccc1O)CN=Cc1ccccc1O (centres unmarked)  5 Minute Guinea Pig % HT Uptake             %          1.19

// next entry
Task: Entry CCCCCC(CN=Cc1ccccc1O)(CN=Cc1ccccc1O)CN=Cc1ccccc1O (centres unmarked) has what 5 Minute Guinea Pig % HT Uptake?
Result: 1.15

###

assay: Biodistribution of Tc-99m complexes in guinea pigs (heart uptake, heart/blood); conditions: jugular vein injection, 5 minutes, Tc-99m complex
Assay metric: 5 Minute Guinea Pig % HT Uptake
Answer as a quantity: numeral, then unit.

Compound	5 Minute Guinea Pig % HT Uptake
CC(CN=Cc1cc(C(F)(F)F)ccc1O)(CN=Cc1cc(C(F)(F)F)ccc1O)CN=Cc1cc(C(F)(F)F)ccc1O (centres unmarked) [R5=H, R6=H, R7=CF3, R8=H, R3=H, R4=CH3]	0.51%
CCOc1cccc(C=NCC(C)(CN=Cc2cccc(OCC)c2O)CN=Cc2cccc(OCC)c2O)c1O (centres unmarked)	0.50%
COCCCCC(CN=Cc1ccccc1O)(CN=Cc1ccccc1O)CN=Cc1ccccc1O (centres unmarked)	1.66%
CCCCCOCC(CN=Cc1ccccc1O)(CN=Cc1ccccc1O)CN=Cc1ccccc1O (centres unmarked)	1.22%
COc1c(C)cc(O)c(C=NCC(C)(CN=Cc2c(O)cc(C)c(OC)c2C)CN=Cc2c(O)cc(C)c(OC)c2C)c1C (centres unmarked)	1.07%
CN(C)c1ccc(C=NCC(C)(CN=Cc2ccc(N(C)C)cc2O)CN=Cc2ccc(N(C)C)cc2O)c(O)c1 (centres unmarked)	0.72%

List reported 5 Minute Guinea Pig % HT Uptake for each of these compounds:
1. COc1cc(O)c(C=NCC(C)(CN=Cc2c(O)cc(OC)c(OC)c2OC)CN=Cc2c(O)cc(OC)c(OC)c2OC)c(OC)c1OC (centres unmarked)
2. CCOCC(CN=Cc1ccccc1O)(CN=Cc1ccccc1O)CN=Cc1ccccc1O (centres unmarked)

Result:
["1.57%", "1.71%"]
